FYI, the data here is from patent US5624923A.

- experimental target: Rat Hepatic V1 Receptors (Rattus norvegicus)
- Construct: Rat liver plasma membranes expressing the vasopressin V1 receptor subtypes; from tissue; host or cells: rat liver plasma membranes
- Sequence (P30560 whole entry): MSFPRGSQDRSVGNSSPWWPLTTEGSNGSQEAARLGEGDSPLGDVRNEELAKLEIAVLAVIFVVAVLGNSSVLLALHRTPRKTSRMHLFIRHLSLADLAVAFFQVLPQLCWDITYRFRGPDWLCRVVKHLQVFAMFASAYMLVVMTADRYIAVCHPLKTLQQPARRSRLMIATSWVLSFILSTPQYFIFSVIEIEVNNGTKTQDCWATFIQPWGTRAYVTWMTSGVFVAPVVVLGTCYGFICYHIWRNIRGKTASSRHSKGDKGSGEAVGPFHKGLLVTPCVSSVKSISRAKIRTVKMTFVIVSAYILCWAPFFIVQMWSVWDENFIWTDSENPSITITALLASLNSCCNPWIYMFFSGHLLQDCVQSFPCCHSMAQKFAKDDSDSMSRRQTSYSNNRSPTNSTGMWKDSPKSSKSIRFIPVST
- experimental protocol: Binding Assay to Rat Hepatic V1 Receptors
- run conditions: 2 h; 10 μM, rat
Recorded inhibition at 10 µM for the following compounds

molecule smiles	inhibition at 10 µM, %
O=C(CCl)Nc1ccc(C(=O)N2Cc3cccn3Cc3ccccc32)cc1	91
Cc1cc(C(=O)N2Cc3cccn3Cc3ccccc32)cc(C)c1NC(=O)c1ccc(Cl)cc1Cl	90
O=C(CN1CCOCC1)Nc1ccc(C(=O)N2Cc3cccn3Cc3ccccc32)cc1	89
CCOC(=O)c1ccc2c(c1)N(C(=O)c1ccc(NC(=O)c3ccccc3C)cc1)Cc1cccn1C2	41
COC(=O)c1ccc(C(=O)Nc2ccc(C(=O)N3Cc4cccn4Cc4ccccc43)cc2)cc1	61
Cc1ccccc1C(=O)Nc1ccc(C(=O)N2Cc3ccc(C(=O)C(F)(F)F)n3Cc3ccccc32)c(Cl)c1	57
O=C(CN1CCOCC1)N(Cc1ccccc1Cl)c1ccc(C(=O)N2Cc3cccn3Cc3ccccc32)cc1	45
Cc1ccccc1C(=O)Nc1ccc(C(=O)N2CCc3nncn3-c3ccccc32)cc1	39
O=C(Nc1ccc(C(=O)N2Cc3ccc(C(=O)C(F)(F)F)n3Cc3ccccc32)cc1)c1ccccc1C(F)(F)F	78
O=C(Nc1ccc(C(=O)N2Cc3ccc(C(=O)C(Cl)(Cl)Cl)n3Cc3ccccc32)cc1)c1ccccc1C(F)(F)F	100
Cc1c(CC(=O)Nc2ccc(C(=O)N3Cc4cccn4Cc4ccccc43)cc2)sc2ccccc12	63
O=C(c1ccc(NS(=O)(=O)c2ccccc2Cl)cc1)N1Cc2cccn2Cc2ccccc21	96
O=C(Nc1ccc(C(=O)N2Cc3cccn3Cc3ccccc32)cc1)c1sc2ccccc2c1Cl	23
O=C(c1ccc(NP(=O)(c2ccccc2)c2ccccc2)cc1)N1Cc2cccn2Cc2ccccc21	82
O=C(Nc1ccc(C(=O)N2Cc3ccc(C(=O)C(Cl)(Cl)Cl)n3Cc3ccccc32)cc1)c1ccc(Cl)cc1Cl	58

###

- System: Vasopressin V1
- experimental protocol: Vasopressin V1 Antagonist Activity in Conscious Rats (vasopressin vasopressor response)
- Type: in vivo, rat
- run conditions: 20 mg/kg i.v., VAS 0.02 i.u./kg, 120 min, SHR
- Description: Vasopressin V1 Antagonist Activity in Conscious Rats Conscious rats are restrained in a supine position with elastic tape. The area at the base of the tail is locally anesthetized by subcutaneous infiltration with 2% procaine (0.2 ml). […] The animals are placed in plastic restraining cages in an upright position. The cannula is attached to a Statham P23Db pressure transducer and pulsatile blood pressure is recorded. […]
Recorded % Inhibition for the following compounds

molecule smiles	% Inhibition [%]
O=C(Nc1ccc(C(=O)N2Cc3cccn3Cc3ccccc32)cc1)c1sc2ccccc2c1Cl	25
O=C(Nc1ccc(C(=O)N2Cc3cccn3Cc3ccccc32)cc1)c1ccc2[nH]ccc2c1	33
Cc1cc(C(=O)N2Cc3cccn3Cc3ccccc32)ccc1N	53
Cc1c(CC(=O)Nc2ccc(C(=O)N3Cc4cccn4Cc4ccccc43)cc2)sc2ccccc12	47

###

- Tested on: Vasopressin V1
- experimental protocol: Vasopressin V1 Antagonist Activity in Conscious Rats (vasopressin vasopressor response)
- Format: in vivo, rat
- run conditions: 10 mg/kg i.v., VAS 0.02 i.u./kg, 180 min, SHR

molecule smiles	unit symbol	% Inhibition
Cc1ccccc1C(=O)Nc1ccc(C(=O)N2Cc3cccn3-c3ccccc32)cc1	%	-9
O=C(Nc1ccc(C(=O)N2Cc3cccn3Cc3ccccc32)cc1)c1ccccc1C(F)(F)F	%	54
O=C(Nc1ccc(C(=O)N2Cc3cccn3Cc3ccccc32)cc1)c1ccccc1F	%	46
O=C(Cc1ccccc1F)Nc1ccc(C(=O)N2Cc3cccn3Cc3ccccc32)cc1	%	78
COc1cc(Cl)ccc1C(=O)Nc1ccc(C(=O)N2Cc3cccn3Cc3ccccc32)cc1	%	48
Cc1ccsc1C(=O)Nc1ccc(C(=O)N2Cc3cccn3Cc3ccccc32)cc1	%	60
O=C(Nc1ccc(C(=O)N2Cc3cccn3Cc3ccccc32)cc1)c1ccc(Cl)cc1Cl	%	17
Cc1cc(C(=O)N2Cc3cccn3Cc3ccccc32)ccc1N	%	72
